Recorded measurements of inhibition, one per entry
assay: CRL1545 cell growth, single agent and combined, cisplatin and BGB IC20 combos (AID 1671464); settings: CRL1545 osteosarcoma cells, single agent, at 5 µM, stronger effect = higher value;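 further: cells exposed to compound for 96 hours before readout; 0% = vehicle DMSO and 100% = high DMSO killing control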
Respond numerically; units are % and should not be typed.

N#Cc1ccc(OC2CCC(NC(=O)CCSc3nc4ccccc4c(=O)[nH]3)CC2)cc1 (stereo not drawn)	4.49
O=C1N=c2ccccc2=C1c1c(O)[nH]c2ccccc12	95.5

For this molecule ( Cc1cc(C#N)cc(C)c1Oc1nc(Nc2ccc(C#N)cc2)nc(N)c1Br ), measured inhibition is 12

====

experiment: CRL1545 cell growth, single agent and combined, cisplatin and BGB IC20 combos (AID 1671464); conditions: CRL1545 osteosarcoma cells, single agent, at 0.05 µM, stronger effect = higher value;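 further: cells exposed to compound for 96 hours before readout; 0% = vehicle DMSO and 100% = high DMSO killing control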
Non-standard residues stand in square brackets, D forms with d. Residues, ends and D or L forms follow the SMILES beside them. Dolaproine = CO[C@@H]([C@@H]1CCCN1)[C@@H](C)C(=O)O; Dil = CC[C@H](C)[C@H](NC)[C@@H](CC(=O)O)OC; NMeV = CN[C@H](C(=O)O)C(C)C
READOUT_KIND: inhibition (%)
Respond numerically; units are % and should not be typed.

Examples from the recorded data:
CC[C@H](C)[C@@H]([C@@H](CC(=O)N1CCC[C@H]1[C@H](OC)[C@@H](C)C(=O)N[C@@H](Cc1ccccc1)C(=O)O)OC)N(C)C(=O)[C@@H](NC(=O)[C@@H](NC)C(C)C)C(C)C (H-[NMeV]V[Dil][Dolaproine]F-OH)	-9.33
O=c1[nH]c(=S)[nH]c2nc(-c3ccccc3)c(-c3ccccc3)nc12	-5.63
CC(C)(C#N)c1ccc(N2C(=O)OCc3cnc4ccc(-c5cnc6ccccc6c5)cc4c32)cc1	-4.01
C[C@@H]1O[C@@H](O[C@@H]2[C@@H](O)[C@H](OCCc3ccc(O)c(O)c3)O[C@H](CO)[C@H]2OC(=O)C=Cc2ccc(O)c(O)c2)[C@H](O)[C@H](O)[C@H]1O	-3.32
CC1CNC(=O)NC1=O (stereo not drawn)	3.21
O=c1[nH]c(=O)n(C2CC(O)C(CO)O2)cc1I (stereo not drawn)	10.9

For this molecule ( COc1nc(N)nc2c1ncn2[C@@H]1O[C@H](CO)[C@@H](O)[C@H]1O ), measured inhibition is -9.67

For this molecule ( Cn1cc(-c2cnn3c(N)c(Br)c([C@H]4CCCNC4)nc23)cn1 ), measured inhibition is 19

====

test: drug combination growth inhibition, ovarian cancer – cell-based, oncology-focused library, rucaparib conditional, profiling panel (AID 1508598); conditions: patient-derived ovarian cancer cells, CellTiter-Glo viability, 144 h; at 0.313 µM; OCI-C5x cells; without rucaparib
Active and inactive are the calls of the source.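 Rule for the calls: active = normalized viability below 100% at a tested concentration; inactive = the rest.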
The categories you may choose from are YES for active, NO for inactive

Answered examples (4):
C[C@@H]1C[C@H]2[C@@H]3CCC4=CC(=O)C=C[C@]4(C)[C@]3(F)[C@H](O)C[C@]2(C)[C@]1(O)C(=O)CO	NO
C[C@]12CCC(=O)C=C1CC[C@@H]1[C@H]2[C@H](O)C[C@@]2(C)[C@H]1CC[C@@]2(O)C(=O)CO	NO
CCOC(=O)c1[nH]c2cc(Cl)ccc2c1C(C(=O)NC(C)(C)C)N(C=O)Cc1ccc(Cl)cc1 (centres undefined)	NO
O=C(NCC1(c2nc(-c3ccccc3)cs2)CCOCC1)c1cccc(-c2noc(C(F)(F)F)n2)c1	NO

Give the logged outcome of this assay for the following compound: Nc1nc(F)nc2c1ncn2[C@H]1O[C@H](CO)[C@@H](O)[C@@H]1O
NO

Give the logged outcome of this assay for the following compound: CCc1c2c(nc3ccc(OC(=O)N4CCC(N5CCCCC5)CC4)cc13)-c1cc3c(c(=O)n1C2)COC(=O)[C@@]3(O)CC
YES

Give the logged outcome of this assay for the following compound: COc1cc([C@H]2c3cc4c(cc3[C@@H](O[C@@H]3O[C@@H]5CO[C@@H](C)O[C@H]5[C@H](O)[C@@H]3O)[C@H]3COC(=O)[C@H]23)OCO4)cc(OC)c1O
YES

Give the logged outcome of this assay for the following compound: C[C@]12CC[C@H]3c4ccc(O)cc4CC[C@H]3[C@@H]1CC[C@H]2O
NO

Give the logged outcome of this assay for the following compound: Cc1[nH]c(C=C2C(=O)Nc3ccc(S(=O)(=O)N(C)c4cccc(Cl)c4)cc32)c(C)c1C(=O)N1CCN(C)CC1
NO

Give the logged outcome of this assay for the following compound: CC(C)CC(CC(=O)NO)C(=O)N[C@@H](Cc1ccc2ccccc2c1)C(=O)N[C@@H](C)C(=O)NCCN (some centres undefined)
NO

Give the logged outcome of this assay for the following compound: O=C(O)c1cc(I)ccc1NC(=O)[C@H](Cc1ccccc1)NCc1ccccc1
NO
